# experimental-target: anandamide amidase (Rattus norvegicus)
# Construct: Crude rat brain homogenate was obtained by decapitating female adult Sprague-Dawley rats, dissecting the desired tissue and homogenizing; from tissue; host or cells: crude brain homogenate of female adult Sprague-Dawley rats
# Sequence (P97612 1-579): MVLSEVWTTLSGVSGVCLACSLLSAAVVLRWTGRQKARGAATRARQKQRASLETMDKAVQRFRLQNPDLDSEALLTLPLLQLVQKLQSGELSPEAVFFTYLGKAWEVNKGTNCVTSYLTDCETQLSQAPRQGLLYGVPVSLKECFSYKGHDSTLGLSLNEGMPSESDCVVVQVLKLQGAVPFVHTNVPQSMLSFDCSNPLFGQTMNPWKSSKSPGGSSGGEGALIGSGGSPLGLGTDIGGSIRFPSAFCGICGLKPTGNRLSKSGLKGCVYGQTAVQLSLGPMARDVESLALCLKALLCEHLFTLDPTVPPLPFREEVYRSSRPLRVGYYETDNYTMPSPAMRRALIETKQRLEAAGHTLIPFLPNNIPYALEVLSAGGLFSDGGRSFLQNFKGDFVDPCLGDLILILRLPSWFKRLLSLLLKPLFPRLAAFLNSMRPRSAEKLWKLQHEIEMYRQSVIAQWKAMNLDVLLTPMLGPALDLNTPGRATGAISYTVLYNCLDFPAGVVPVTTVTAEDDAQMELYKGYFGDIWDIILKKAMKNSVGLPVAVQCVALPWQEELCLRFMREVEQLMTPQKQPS
# protocol-summary: Anandamide amidase assay in vitro, crude rat brain homogenate
# Assay type: biochemical
# setup-conditions: crude rat brain homogenate, 10 min preincubation at 37° C.; read-out: IC50 for inhibition of anandamide amidase
pIC50: −log10 of the molar value.
Reported pIC50 is given for each of the following compounds.

- compound: "CCCCCCCCCCCCCCS(=O)(=O)F [myristylsulfonyl fluoride]"
  pIC50: "> 8.00"
- compound: "CCCCCCCCCCCCCCCCCCS(=O)(=O)F [stearylsulfonyl fluoride]"
  pIC50: "> 8.00"
- compound: "CCCCCCCCCCCCS(=O)(=O)F [laurylsulfonyl fluoride]"
  pIC50: "> 8.00"

---

# experimental-target: anandamide amidase (Rattus norvegicus)
# Construct: Crude rat brain homogenate was obtained by decapitating female adult Sprague-Dawley rats, dissecting the desired tissue and homogenizing; from tissue; host or cells: crude brain homogenate of female adult Sprague-Dawley rats
# protocol-summary: Anandamide amidase assay in vitro, crude rat brain homogenate
# Type: biochemical
pIC50: −log10 of the molar value.

- molecule: "CCCCCCCCCCCCCCCCS(=O)(=O)F [palmitylsulfonyl fluoride]"
  pIC50: "> 8.00"

Data provenance: patent US6579900B2
